assayComment: Solubility in PBS
Format: physicochemical
details: Solubility (uM)
Below, each entry is listed alongside its reported Solubility.
propertyLabel: Solubility (µM)

>>> quantitativereadout("CC(=O)N1CCC[C@]12CC=CCCCC1(CCCC=CCCCOC(=O)N3CC[C@@](C(=O)N[C@@H](Cc4ccccc4Cl)C(=O)N[C@@H](Cc4csc5ccccc45)C(=O)N[C@@H](CCC(N)=O)C(N)=O)(C3)NC(=O)[C@H](CC(N)=O)NC(=O)[C@H](Cc3ccccc3)NC(=O)[C@H](CO)NC(=O)[C@H](C)NC(=O)[C@H](CN(CC(=O)O)CC(F)(F)F)NC(=O)[C@H](CC(=O)O)NC1=O)NC(=O)[C@H](CC(C)(C)C)NC(=O)[C@H](CC(=O)O)NC2=O (some centres unmarked)")
47
>>> quantitativereadout("CC(=O)N1CCC[C@]12CC=CCCCC1(CCCC=CCCCOC(=O)N3CC[C@@](C(=O)N[C@@H](Cc4ccccc4Cl)C(=O)N[C@@H](Cc4csc5ccccc45)C(=O)N[C@H](CO)CC(C)C)(C3)NC(=O)[C@H](CC(N)=O)NC(=O)[C@H](Cc3ccccc3)NC(=O)[C@H](C)NC(=O)[C@H](C)NC(=O)[C@H](CC(=O)O)NC(=O)[C@H](CC(=O)O)NC1=O)NC(=O)[C@H](CC(C)(C)C)NC(=O)[C@H](CC(=O)O)NC2=O (some centres unmarked)")
47
